For each of the molecules below, state its inhibition.
- assayed.target: Serine/threonine-protein kinase PAK 2 (Homo sapiens) (UniProt Q13177);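 also: values are mean percent inhibition of PAK2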
- Sequence (Q13177 whole entry): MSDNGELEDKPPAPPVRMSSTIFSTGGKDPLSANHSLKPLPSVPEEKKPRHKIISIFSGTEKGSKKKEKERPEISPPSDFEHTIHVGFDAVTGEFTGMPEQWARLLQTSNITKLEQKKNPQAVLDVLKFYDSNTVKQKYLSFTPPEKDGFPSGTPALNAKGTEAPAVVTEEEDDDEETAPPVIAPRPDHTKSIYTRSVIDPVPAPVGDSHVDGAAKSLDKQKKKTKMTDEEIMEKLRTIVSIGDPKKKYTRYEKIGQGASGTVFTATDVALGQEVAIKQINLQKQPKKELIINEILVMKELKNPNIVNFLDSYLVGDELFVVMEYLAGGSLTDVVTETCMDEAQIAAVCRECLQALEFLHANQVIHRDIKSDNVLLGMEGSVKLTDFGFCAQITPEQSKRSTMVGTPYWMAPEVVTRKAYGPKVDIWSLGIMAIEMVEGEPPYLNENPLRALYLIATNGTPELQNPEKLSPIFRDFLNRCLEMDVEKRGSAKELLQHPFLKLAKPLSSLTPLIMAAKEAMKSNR
- experimental.conditions: at 0.1 µM
Respond with the figure and its unit, in that order.

Field: example entries. Status: answers known.
> print(dat)
                                   molecule  recorded.endpoint  result
1          CN(C)CCCn1c(-c2nonc2N)nc2cnccc21         inhibition   1.48%
2   Cc1ccc(O)cc1Nc1ccnc2ccc(S(C)(=O)=O)cc12         inhibition   2.82%
3   COc1ccc2ncnc(Nc3ccc(OCc4ccccc4)cc3)c2c1         inhibition  -0.61%
4  Cc1cc(Cl)cc2c1NC(=O)C2=NNc1ccc(S(N)(=O)=O)cc1         inhibition   1.05%
5             CCOc1nccc2c1nc(-c1nonc1N)n2CC         inhibition   0.86%
6   Cc1ccc(C(=O)NC2CC2)cc1-c1ccc2[nH]ncc2c1         inhibition   -3.3%

For each of the molecules below, note its inhibition.
1. ON=C1CCc2cc(-c3nc(C4CCNCC4)[nH]c3-c3ccncc3)ccc21
2. NS(=O)(=O)c1ccc(-c2cc3ccncc3cc2OCc2ccccc2)cc1
3. N#Cc1c(NC(=O)c2ccccc2F)sc2c1CCCC2
4. COc1cccc(-n2ncc3c(N/N=C/c4ccc(C)cc4)ncnc32)c1
5. Oc1cccc(-c2nc(-c3ccccc3)[nH]c2-c2ccncc2)c1
6. Cc1ccc2c(c1)/C(=N/Nc1ccc(S(N)(=O)=O)cc1)C(=O)N2

1: -0.65%; 2: 1.08%; 3: -2.11%; 4: 1.75%; 5: 2.18%; 6: 0.16%

* * *

For each of the compounds below, state its inhibition.
- assayed.target: Tyrosine-protein kinase Fes/Fps (Homo sapiens) (UniProt P07332);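 also: mean inhibition of FES from the GSK PKIS kinase inhibitor screening set, assayed by Nanosyn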
- Sequence (P07332 whole entry): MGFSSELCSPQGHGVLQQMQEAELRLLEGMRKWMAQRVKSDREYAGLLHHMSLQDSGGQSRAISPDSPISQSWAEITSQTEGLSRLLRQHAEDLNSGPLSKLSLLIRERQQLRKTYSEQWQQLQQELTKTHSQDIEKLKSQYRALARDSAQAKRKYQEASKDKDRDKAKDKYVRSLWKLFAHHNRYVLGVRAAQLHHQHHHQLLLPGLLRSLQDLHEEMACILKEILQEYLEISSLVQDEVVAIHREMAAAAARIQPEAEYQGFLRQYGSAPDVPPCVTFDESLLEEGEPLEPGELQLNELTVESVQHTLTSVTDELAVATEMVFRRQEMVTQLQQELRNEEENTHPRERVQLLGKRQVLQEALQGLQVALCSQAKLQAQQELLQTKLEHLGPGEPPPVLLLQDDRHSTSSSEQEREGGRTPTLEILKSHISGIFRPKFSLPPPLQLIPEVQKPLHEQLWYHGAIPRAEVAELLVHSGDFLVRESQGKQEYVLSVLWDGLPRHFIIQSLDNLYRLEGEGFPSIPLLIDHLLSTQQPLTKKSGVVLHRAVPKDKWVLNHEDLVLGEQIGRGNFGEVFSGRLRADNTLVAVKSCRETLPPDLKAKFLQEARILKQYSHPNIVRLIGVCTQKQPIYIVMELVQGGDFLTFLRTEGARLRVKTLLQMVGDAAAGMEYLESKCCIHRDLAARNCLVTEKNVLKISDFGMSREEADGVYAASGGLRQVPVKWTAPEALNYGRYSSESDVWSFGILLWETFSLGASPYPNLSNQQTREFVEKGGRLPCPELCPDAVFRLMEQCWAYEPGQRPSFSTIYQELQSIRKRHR
- experimental.conditions: at 1 µM
Answers are plain numbers, in %.

For each of the compounds below, note its inhibition.
1. ON=C1CCc2cc(-c3nc(C4CCNCC4)[nH]c3-c3ccncc3)ccc21
2. CN1CCN(C(=O)c2ccc(NC(=O)Nc3ccc(N(C)c4ccnc(Nc5ccc(CS(C)(=O)=O)cc5)n4)cc3)cc2)CC1
3. N#Cc1cccc(Nc2nccc(-c3cnn4ncccc34)n2)c1
4. Nc1nccc(C#Cc2cncnc2Nc2ccc(OCc3cccc(F)c3)c(Cl)c2)n1

[0.86, 43.4, 34.3, 4.65]

* * *

For each of the compounds below, state its inhibition.
- assayed.target: Ephrin type-A receptor 4 (Homo sapiens)
- experimental.conditions: at 1 µM
- Description: GSK_PKIS: EPHA4 mean inhibition at 1 uM [Nanosyn]
Answers are plain numbers, in %.

Field: example entries. Status: answers known.
> print(dat)
                            compound.smiles                           assayed.target  recorded.endpoint  number
1  CC(C)c1ccc2c(c1)NC(=O)/C2=N/Nc1ccc(S(N)(=O)=O)cc1  Ephrin type-A receptor 4 (Homo sapiens)         inhibition    5.06
2  Cc1ccc2c(-c3ccnc(Nc4ccc5c(c4)OCCO5)n3)c(-c3ccc(C(F)(F)F)cc3)nn2n1  Ephrin type-A receptor 4 (Homo sapiens)         inhibition    3.57
3  COc1cc2ncnc(Nc3ccc4c(cnn4Cc4ccccc4)c3)c2cc1OC  Ephrin type-A receptor 4 (Homo sapiens)         inhibition    6.82

For each of the compounds below, note its inhibition.
1. OCc1ccc(-c2nc(-c3ccccn3)c(-c3ccc4c(c3)OCO4)[nH]2)cc1
2. Cc1ccc(NC(=O)CC2CC2)cc1-c1ccc(C(=O)NCC2CC2)cc1
3. C[C@@H](Oc1cc(-n2cnc3ccc(OC[C@@H](O)CO)cc32)sc1C(N)=O)c1ccccc1Cl
4. NS(=O)(=O)c1ccc(-c2cc3ccncc3cc2OCc2ccccc2)cc1
5. COc1cc(/C=N/Nc2ncnc3c2cnn3C(C)C)ccc1O
6. COc1cc(Nc2nccc(-c3cnn4ncccc34)n2)cc(OC)c1
7. COc1cc2ncnc(Nc3ccc(C)c(O)c3)c2cc1OC

1: 7.48; 2: 12.9; 3: -0.2; 4: 10.4; 5: 32.9; 6: 45.3; 7: 49.9
